- SYSTEM NAME: T1, human ASGR-1 (human, UniProt P07306 1-291)
- T1 construct: Stably expressed on CHO-S cells (CHO-S:huASGR-1); The method text says human or mouse ASGR-1 cells were used; also called huASGR-1; hASGR-1
- T1 sequence: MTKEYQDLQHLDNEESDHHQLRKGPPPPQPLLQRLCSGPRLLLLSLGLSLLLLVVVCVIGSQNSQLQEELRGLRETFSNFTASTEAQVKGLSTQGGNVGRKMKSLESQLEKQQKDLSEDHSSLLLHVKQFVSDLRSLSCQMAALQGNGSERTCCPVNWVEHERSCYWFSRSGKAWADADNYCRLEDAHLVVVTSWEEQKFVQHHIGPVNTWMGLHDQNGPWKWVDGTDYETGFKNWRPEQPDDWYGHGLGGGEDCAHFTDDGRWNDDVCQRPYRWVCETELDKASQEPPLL
- EXPERIMENT SUMMARY: FACS ligand blocking on CHO-S ASGR-1 cells; labelled ligand biotin-GalNAc-PAA (synthetic sugar)
QUANTITY KIND: pIC50
A value of pIC50 is the negative decimal logarithm of a concentration given in moles per litre.

[
  {
    "BINDER": "7G4 (antibody, V domains shown) VH: QVQLVESGGGVVQPGRSLRLSCAASGFTFNNYVMHWVRQAPGKGLEWVAVIWYDGSNKYYADSVKGRFTISRDNSKNTLYLQMTSLRAEDTAVYYCAREKYSSNWYDYGMDVWGQGTTVTVSS VL: DIQMTQSPSSLSASVGDRVTITCRASQGIRNDLGWYQQRPGKAPKRLIYAASSLQSGVPSRFSGSGSGTEFTLTISSLQPEDSATYYCLHQYSYPRTFGQGTKVEIK",
    "QUANTITY KIND": "pIC50",
    "ENDPOINT RESULT": 7.70
  }
]

Request: Identify pIC50 associated with the binder 198G3 (antibody, V domains shown) VH: QVQLVESGGGVVQPGRSLKLSCAASGFTFSTYGMHWVRQAPGKGLEWVAVIWYDGTNKNYADSVKGRFTISRDNSKNTLCLQMNSLRAEDTAVYYCARDQGVGYDGLDVWGQGTTVTVSS VL: DIQMAQSPSSLSASVGDRVTITCRTSQGIGKYLAWFQQKPGKAPKSLLYKASSLQGGVPSKFSGSGSGTDFTLTISSLQPEDFATYYCQQYMTYPLTFGGGTKVEIK
Response: 8.30
